The measured values listed here are drawn from PubChem BioAssay.

Test: inhibitors of hydroxyurea-induced Chk1 phosphorylation, primary screen, imaging, HeLa, phospho-Chk1 nuclear intensity (AID 1187); also: test concentration not given here
Details: hydroxyurea-induced phospho-Chk1 immunofluorescence imaging, higher = more signal
The source made the active and inactive calls. No rule for the calls is given here.
Measurement kind: z-score

Answered examples (2):
smiles_repr=COc1ccc(C(=O)Nc2cccc(CN3C(=O)[C@]4(O[C@H](CC(=O)N5CCC[C@H]5CO)[C@@H]([Si](C)(C)c5ccc(OC)cc5)[C@@H]4C)c4ccccc43)c2)cc1 measurement_kind=z-score value_measured="0.131 (inactive)"
smiles_repr=COCCOC(=O)N1C(=O)[C@@]2(c3ccccc31)[C@H](c1ccc(O)cc1)N1[C@H](c3ccccc3)[C@H](c3ccccc3)OC(=O)[C@H]1[C@@H]2C(=O)N1CCc2cc(OC)c(OC)cc2C1 measurement_kind=z-score value_measured="0.361 (inactive)"

Look up z-score of COCCOC(=O)N1C(=O)[C@@]2(c3cc(C#CCCO)ccc31)[C@H](c1ccccc1OCCO)N1[C@H](c3ccccc3)[C@H](c3ccccc3)OC(=O)[C@H]1[C@@H]2C(=O)N1CCN(c2ncccn2)CC1 and report it.
-0.157 (inactive)

Determine its reported z-score: O=C1O[C@@H](c2ccccc2)[C@@H](c2ccccc2)N2[C@@H](c3ccc(OCCO)cc3)[C@]3(C(=O)Nc4ccc(C#CC5=CCCCC5)cc43)[C@@H](C(=O)O)[C@H]12
0.542 (inactive)

Consider the compound COc1ccc(CCNC(=O)[C@@H]2c3ccccc3C(=O)N(Cc3ccc(OC(F)(F)F)cc3)[C@H]2c2ccc(CO)cc2)cc1 . State its measured z-score.
-0.312 (inactive)

----------
Test system: Sam68 (KHDRBS1)
Test: Sam68 small-molecule binders, primary screen, biochemical, small-molecule microarray, 635 nm fluorescence (AID 1125);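 also: score merges 667 nm channel intensity with signal to noise over triplicate slides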
Conditions: small-molecule microarray binding, higher = more signal
Measurement kind: composite z-score
The reply should be a number, written without any unit.

Example results:
molecule=C=CCOC(=O)[C@H]1[C@@H]2C(=O)O[C@@H](c3ccccc3)[C@@H](c3ccccc3)N2[C@@H](c2ccc(OCCOC(=O)[C@@H]3C[C@@H]4C(=O)NCC(=O)N4[C@@H]3c3ccc(O)cc3)cc2)[C@]12C(=O)Nc1ccccc12 measurement_kind="composite z-score" value_measured=1.29
molecule=[N-]=[N+]=NCc1ccccc1C[C@]1(C(=O)O)N=C(c2ccc(OCCCO)cc2)O[C@H]1c1ccccc1CN=[N+]=[N-] measurement_kind="composite z-score" value_measured=1.34

Return composite z-score (reported value) for this molecule: Cc1cc(C)c(C(O)C2C=CC3C(=O)N(C)C(=O)C3N2Nc2ccccc2)c(C)c1 (stereo unspecified)
0.485

Note composite z-score for the molecule shown: CC(c1ccccc1)C(O)C1C=CC2C(=O)NC(=O)C2N1Nc1ccccn1 (stereo unspecified)
1.1

Identify measured composite z-score associated with COCCOC(=O)N1C(=O)[C@@]2(c3cc(C#CC4=CCCCC4)ccc31)[C@H](C(=O)N1CCc3cc(OC)c(OC)cc3C1)[C@H]1C(=O)O[C@H](c3ccccc3)[C@H](c3ccccc3)N1[C@@H]2c1ccccc1OCCO
0.6

Give recorded composite z-score. COc1c(C)cc(-c2cc3c(c(-c4ccc(Oc5ccccc5)cc4)n2)[Si](C(C)C)(C(C)C)OC3)cc1C
-1.07

----------
Parameter: composite z-score. Scope: all listed entries.
Assay: binders of probe aFSTL3 on microarray, primary screen, stem cell growth factor project, biochemical, small-molecule microarray, fluorescence 635/667 (AID 1064);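 also: measures binding of the biotinylated anti-FSTL3 antibody to printed compounds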
Details: higher = more signal
Response field accepts a number only; no unit should be typed.

compound=COc1cc2c(cc1OC)CN(C(=O)[C@@H]1[C@H]3C(=O)O[C@H](c4ccccc4)[C@H](c4ccccc4)N3[C@H](c3ccccc3OCCO)[C@@]13C(=O)Nc1ccc(C#CCNC(N)=O)cc13)CC2 measurement_kind="composite z-score" value_measured=0.309
compound=CCOC(=O)C[C@H]1[C@H](OC(=O)c2ccc(-c3ccccc3)cc2)[C@@H](NC(=O)c2ccc(-c3ccccc3)cc2)c2cc(OCCCO)ccc2N1C(=O)Cc1ccc(OC)cc1 measurement_kind="composite z-score" value_measured=-0.263
compound=COC(=O)[C@@]1(Cc2ccccc2)N=C(c2ccc(OCCCO)cc2)O[C@H]1c1ccccc1N=[N+]=[N-] measurement_kind="composite z-score" value_measured=0.454

Return reported composite z-score. Input compound: CCCCCN1CC=CC23O[C@@H]4/C=C\CCC(C)OC(=O)C4[C@H]2C(=O)N(CCCCCO)[C@@H]3C1=O (some centres not stated)
-0.0551

Return composite z-score (reported value) for this compound: CC(C)c1ccc(NN2C(C(O)c3cccc(O)c3)C=CC3C(=O)N(c4ccccc4)C(=O)C32)cc1 (configuration not stated)
0.0067

Kindly indicate its recorded composite z-score. Item: CC(C)NC(=O)[C@@H]1c2ccccc2C(=O)N(Cc2ccccc2Cl)[C@H]1c1ccc(CO)cc1
0.717

Answer with the recorded composite z-score of COCCOC(=O)N1C(=O)[C@@]2(c3cc(C#CCNC(N)=O)ccc31)[C@H](C(=O)N1CCc3cc(OC)c(OC)cc3C1)[C@H]1C(=O)O[C@H](c3ccccc3)[C@H](c3ccccc3)N1[C@@H]2c1ccc(OCCO)cc1 only.
-0.222

Report composite z-score for COCC(=C=CC[C@H](O)c1ccc(OCCO)cc1)C[C@H](O)c1cc(Cl)cc(Cl)c1O
-0.327

Answer with the recorded composite z-score for the compound listed here: O=C1OCCC=C[C@H]2OC34C=CCN(Cc5ccccc5)C(=O)[C@H]3N(CCCO)C(=O)[C@@H]4C12 (some centres not stated)
-0.274

Supply recorded composite z-score for CC(C)(C)N1CC=CC23O[C@@H]4/C=C\CCCOC(=O)C4[C@H]2C(=O)N(CCO)[C@@H]3C1=O (some centres not stated) here.
0.29

Return value of composite z-score for input COC(=O)[C@@]1(Cc2ccc(F)cc2)[C@H]2c3cc(C(=O)N4CCCC4)n(Cc4cccc5ccccc45)c3C[C@H]2CN1C(=O)c1ccccc1 , no commentary.
0.242

Read the entry O=C1O[C@@H](c2ccccc2)[C@@H](c2ccccc2)N2[C@@H](c3ccc(O)cc3)[C@]3(C(=O)Nc4ccc(C#CC5(O)CCCCCC5)cc43)[C@@H](C(=O)N3CCCCCCC3)[C@H]12 and write its reported composite z-score.
2.55

Supply recorded composite z-score for Cc1ccc(S[C@]2(C(=O)NCc3ccccc3)CC(=O)N(Cc3ccccc3Cl)[C@@H]2c2ccc(CO)cc2I)cc1 here.
0.715

Specify measured composite z-score for O=C(NCc1ccccc1)[C@]1(CCS(=O)(=O)c2ccccc2)N=C(c2ccc(OCCCO)cc2)O[C@@H]1c1ccccc1 .
0.0169

Tell us which composite z-score value is on record for O=C(CCN1CCOCC1)c1cccc(O)c1
-0.302

Entry Cc1ccc(S[C@]2(C(=O)NCc3ccccc3)CC(=O)N(Cc3ccccc3)[C@@H]2c2ccc(CO)cc2)cc1 needs its composite z-score filled in; supply it.
0.264

Return composite z-score (reported value) for this compound: COC(=O)c1ccc(C23CC2(C(NP(=O)(c2ccccc2)c2ccccc2)c2ccccc2)C3)cc1 (configuration not stated)
0.741

// Input: COc1ccc([Si](C)(C)[C@H]2[C@H](CCn3cc([C@H](O)c4ccccc4)nn3)O[C@@]3(C(=O)N(Cc4cccc(N5CCC5=O)c4)c4ccccc43)[C@@H]2C)cc1 . Output its composite z-score only.
0.386

Give a short answer stating reported composite z-score for NC(=O)NCC#Cc1ccc2c(c1)[C@]1(C(=O)N2)[C@H](C(=O)N2CCCCCCC2)[C@H]2C(=O)O[C@H](c3ccccc3)[C@H](c3ccccc3)N2[C@@H]1c1ccc(OCCO)cc1 .
3.14

Note down composite z-score recorded for Cc1ccc(S[C@]2(C(=O)O)CC(=O)N(C3Cc4ccccc4C3)[C@@H]2c2ccc(CO)cc2I)cc1
1.43

Report composite z-score for O=C1C[C@@](C(=O)NC2CC2)(c2ccc([N+](=O)[O-])cc2)[C@@H](c2ccc(CO)cc2)N1CC12CC3CC(CC(C3)C1)C2
-0.0569
